Just for reference, patent EP4755881A1 is where these values come from.

# PROTOCOL DESCRIPTION: Pharmacokinetic study in rats (oral gavage and tail vein injection, plasma LC-MS/MS)
# Assay type: in vivo
# DETAILS: male, rat, SD rats, Po, 1 mg/kg
PROPERTY LABEL: half-life (h)
Write the answer as a number in h, unit excluded.

Req: Consider the compound Cc1nc(-c2nnn(C)c2NC(=O)OC(C)C23CC(F)(C2)C3)ccc1C#CC1(CC(=O)O)CC1 (stereo not shown) and give its recorded half-life.
Resp: 6.12

* * *

Reported Cmax by item:
# PROTOCOL DESCRIPTION: Pharmacokinetic study in rats (oral gavage and tail vein injection, plasma LC-MS/MS)
# Format: in vivo
# DETAILS: rat, SD rats, Po, 1 mg/kg, read-out: Cmax

Here's what some known entries look like.
COMPOUND | Cmax
CCC(F)(F)[C@@H](C)OC(=O)Nc1c(-c2ccc(C#CC3(CC(=O)O)CC(OC)C3)c(C)n2)nnn1C (stereo partly drawn) | 800 to 5000 ng/mL
Cc1nc(-c2nnn(C)c2NC(=O)OC(C)CC2CC2)ccc1C#CC1CCC1C(=O)O (single isomer, unassigned) | 200 to 800 ng/mL

Req: Consider the compound CCCc1ccnc(NCc2c(-c3ccc(C#CC4(CC(=O)O)CC4)c(C)n3)nnn2C)n1 and give its recorded Cmax.
Resp: 200 to 800 ng/mL

* * *

# PROTOCOL DESCRIPTION: Pharmacokinetic study in rats (oral gavage and tail vein injection, plasma LC-MS/MS)
# Type: in vivo
# DETAILS: male, rat, SD rats, Po, 1 mg/kg
Reported AUC(0-t) by item:

Here's what some known entries look like.
MOLECULE | PROPERTY LABEL | OBSERVED RESULT
CCC[C@@H](C)OC(=O)Nc1c(-c2ccc(C#CC3(CC(=O)O)CC(OC)C3)c(C)n2)nnn1C (stereo partly shown) | AUC(0-t) | 5000 to 10000 ng·h/mL
Cc1nc(-c2nnn(C)c2NC(=O)OC(C)CCC(F)F)ccc1C#CC1(CC(=O)O)CC1 (stereo not shown) | AUC(0-t) | 5000 to 10000 ng·h/mL
C[C@H](CC(C)(F)F)OC(=O)Nc1c(-c2ccc(C#CC3(CC(=O)O)CC3)c(Cl)n2)nnn1C | AUC(0-t) | 3000 to 5000 ng·h/mL
Cc1nc(-c2nnn(C)c2NC(=O)O[C@H](C)CC(C)(F)F)ccc1C#C[C@@H]1CC[C@H]1C(=O)O (mixture of isomers) | AUC(0-t) | 5000 to 10000 ng·h/mL
CCC(F)(F)[C@@H](C)OC(=O)Nc1c(C)noc1-c1ccc(C#CC2(CC(=O)O)CC(OC)C2)c(C(F)(F)F)n1 (stereo partly shown) | AUC(0-t) | 10000 to 20000 ng·h/mL
Cc1nc(-c2nnn(C)c2NC(=O)O[C@H](C)CC(C)(F)F)ccc1C#CC1(CC(=O)O)CCC1 | AUC(0-t) | 5000 to 10000 ng·h/mL

Shift focus to the following entry.
Req: Consider the molecule CCCN(C)C(=O)OCc1c(-c2ccc(C#C[C@@H]3CCC[C@H]3C(=O)O)c(C)n2)nnn1C and give its recorded AUC(0-t).
Resp: 1200 to 3000 ng·h/mL

* * *

Reported half-life by item:
# PROTOCOL DESCRIPTION: Pharmacokinetic study in rats (oral gavage and tail vein injection, plasma LC-MS/MS)
# Format: in vivo
# DETAILS: rat, SD rats, Iv, 1 mg/kg
Write the answer as a number in h, unit excluded.

Here's what some known entries look like.
COMPOUND | RESULT UNITS | half-life
Cc1nc(-c2nnn(C)c2NC(=O)OC(C)C23CC(C2)C3)ccc1C#CC1(CC(=O)O)CC1 (racemic) | h | 8.44
Cc1nc(-c2nnn(C)c2NC(=O)OC(C)CC2CC2)ccc1C#CC1CCC1C(=O)O (single isomer, unassigned) | h | 7.72
CCC(F)(F)[C@@H](C)OC(=O)Nc1c(-c2ccc(C#CC3(CC(=O)O)CC3)c(C)n2)noc1C | h | 2.91

Shift focus to the following entry.
Req: Consider the compound Cc1nc(-c2nnn(C)c2Nc2cncc(OC(C)C)n2)ccc1C#CC1(CC(=O)O)CC1 and give its recorded half-life.
Resp: 4.65

* * *

# TGT: LPAR1 receptor (Homo sapiens)
# Construct: expressed in transfected cells
# Sequence (Q92633 whole entry): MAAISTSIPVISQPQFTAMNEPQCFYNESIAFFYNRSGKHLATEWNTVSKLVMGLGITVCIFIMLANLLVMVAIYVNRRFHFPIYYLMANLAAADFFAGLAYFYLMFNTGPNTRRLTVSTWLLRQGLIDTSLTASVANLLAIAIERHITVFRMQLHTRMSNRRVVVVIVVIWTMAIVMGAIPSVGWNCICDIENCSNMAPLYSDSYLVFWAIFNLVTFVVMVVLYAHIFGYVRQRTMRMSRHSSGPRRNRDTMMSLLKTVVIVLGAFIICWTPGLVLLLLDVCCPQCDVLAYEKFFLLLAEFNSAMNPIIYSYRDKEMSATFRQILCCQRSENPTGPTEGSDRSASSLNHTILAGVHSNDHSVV
# PROTOCOL DESCRIPTION: LPAR1 in vitro biological activity evaluation 2: HTRF cAMP kit (LANCE Ultra cAMP Kit) assay in CHO stable transfected cell line expressing the LPAR1 receptor
# Format: cell-based
# DETAILS: Table 2, read-out: LPAR1 inhibitory activity IC50
PROPERTY LABEL: IC50
Answer with the figure and its unit, nothing else.

COMPOUND | TGT | IC50
CCOc1ccnc(NCc2c(-c3ccc(C#CC4(CC(=O)O)CC4)c(C)n3)nnn2C)n1 | LPAR1 receptor (Homo sapiens) | 0.0839 µM
CCCN(C)C(=O)OCc1c(-c2ccc(C#CC3(CC(=O)O)CC3)c(C(F)(F)F)n2)nnn1C | LPAR1 receptor (Homo sapiens) | 0.205 µM
Cc1nc(-c2nnn(C)c2NC(=O)O[C@H](C)CC2CC2)ccc1C#C[C@@H]1CC[C@H]1C(=O)O | LPAR1 receptor (Homo sapiens) | 0.0722 µM

Req: Consider the compound CCOC1CC(C#Cc2ccc(-c3nnn(C)c3NC(=O)O[C@H](C)C(F)(F)CC)nc2C)(CC(=O)O)C1 (some centres unmarked) and give its recorded IC50.
Resp: 0.0334 µM

Req: Consider the compound CCOC1CC(C#Cc2ccc(-c3nnn(C)c3NC(=O)O[C@H](C)C(F)(F)CC)nc2Cl)(CC(=O)O)C1 (some centres unmarked) and give its recorded IC50.
Resp: 0.0165 µM

Req: Consider the compound CCC[C@@H](C)OC(=O)Nc1c(-c2ccc(C#C[C@@H]3CC(F)(F)C[C@H]3C(=O)O)c(C)n2)nnn1C and give its recorded IC50.
Resp: 0.134 µM

Req: Consider the compound Cc1nc(-c2nnn(C)c2NC(=O)O[C@H](C)c2ccccc2)ccc1C#C[C@@H]1CC[C@H]1C(=O)O and give its recorded IC50.
Resp: 0.0832 µM

Req: Consider the compound CCC(F)(F)[C@@H](C)OC(=O)Nc1c(C)noc1-c1ccc(C#C[C@@H]2CCC[C@H]2C(=O)O)c(C)n1 and give its recorded IC50.
Resp: 0.0523 µM

Req: Consider the compound CCc1nc(-c2nnn(C)c2NC(=O)O[C@H](C)C(F)(F)CC)ccc1C#CC1(CC(=O)O)CC2(CC2)C1 and give its recorded IC50.
Resp: 0.0064 µM

Req: Consider the compound CCC(F)(F)[C@@H](C)OC(=O)Nc1c(C)noc1-c1ccc(C#CC2(CC(=O)O)CC2)c(C)n1 and give its recorded IC50.
Resp: 0.0266 µM

Req: Consider the compound CCC(F)(F)[C@@H](C)OC(=O)Nc1c(C)noc1-c1ccc(C#CC2(CC(=O)O)CC(OC)C2)c(C)n1 (some centres unmarked) and give its recorded IC50.
Resp: 0.0515 µM

Req: Consider the compound Cc1nc(-c2nnn(C)c2NC(=O)O[C@H](C)C23CC(C2)C3)ccc1C#CC1(CC(=O)O)CC(F)(F)C1 and give its recorded IC50.
Resp: 0.0166 µM

Req: Consider the compound CCC(F)(F)[C@@H](C)OC(=O)Nc1c(-c2ccc(C#CC3(CC(=O)O)CC4(CC4)C3)c(C(F)(F)F)n2)nnn1C and give its recorded IC50.
Resp: 0.0115 µM

Req: Consider the compound C[C@H](CC(C)(F)F)OC(=O)Nc1c(-c2ccc(C#CC3(CC(=O)O)CC4(CC4)C3)c(Cl)n2)nnn1C and give its recorded IC50.
Resp: 0.0072 µM

* * *

# TGT: hLPAR1 (human lysophosphatidic acid receptor 1, Accession No.: NM_001401.4) (Homo sapiens, UniProt Q92633)
# PROTOCOL DESCRIPTION: cell-based
# DETAILS: Table 1; FLIPR method, CHO-K1 cells overexpressing hLPAR1; read-out: LPAR1 inhibitory activity IC50
Checkbox rule: IC50 lower than 20 nM = MET; IC50 not lower than 20 nM = NOT MET.

Consider the following illustrative entries.
MOLECULE | QUALITATIVE LABEL
CCC[C@@H](C)OC(=O)Nc1c(C)noc1-c1ccc(C#C[C@@H]2CC[C@H]2C(=O)O)c(C)n1 [compound 339] | MET
Cc1nc(-c2nnn(C)c2COC(=O)N(C)CC2CCC2(F)F)ccc1C#CC1(CC(=O)O)CC1 (centres unmarked) [compound 026] | NOT MET
Cc1nc(-c2nnn(C)c2COC(=O)N(C)CCCCF)ccc1C#CC1(CC(=O)O)CC1 [compound 034] | NOT MET
Cc1nc(-c2nnn(C)c2NC(=O)O[C@H](C)c2ccccc2)ccc1C#CC1(CC(=O)O)CC1 [compound 022] | MET
Cc1nc(-c2nnn(C)c2NC(=O)O[C@H](C)c2ccccc2)ccc1C#C[C@@H]1CC(F)(F)C[C@H]1C(=O)O [compound 226] | MET

Note: attention shifts to another entry.
Req: Determine whether this molecule shows IC50 lower than 20 nM (ties excluded): Cc1noc(-c2ccc(C#C[C@@H]3CCC[C@H]3C(=O)O)cn2)c1NC(=O)O[C@H](C)CC(C)(F)F [compound 344]
Resp: NOT MET
